These measurements were taken from patent US12479827B2.

Each entry below carries its reported log10 IC50.
Biological target: PKK in kaolin activated human platelet poor plasma (Homo sapiens)
Construct: Platelet poor plasma (PPP) obtained from human wholeblood
Sequence (P03952 391-638 limits assumed): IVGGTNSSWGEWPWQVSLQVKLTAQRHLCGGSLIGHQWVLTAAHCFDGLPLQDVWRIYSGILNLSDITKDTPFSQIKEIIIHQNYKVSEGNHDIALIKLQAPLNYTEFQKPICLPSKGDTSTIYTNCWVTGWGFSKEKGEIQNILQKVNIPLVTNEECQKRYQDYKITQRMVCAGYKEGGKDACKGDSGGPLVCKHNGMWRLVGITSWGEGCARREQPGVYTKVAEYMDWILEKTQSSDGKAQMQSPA
Sequence (P03952 20-390 limits assumed): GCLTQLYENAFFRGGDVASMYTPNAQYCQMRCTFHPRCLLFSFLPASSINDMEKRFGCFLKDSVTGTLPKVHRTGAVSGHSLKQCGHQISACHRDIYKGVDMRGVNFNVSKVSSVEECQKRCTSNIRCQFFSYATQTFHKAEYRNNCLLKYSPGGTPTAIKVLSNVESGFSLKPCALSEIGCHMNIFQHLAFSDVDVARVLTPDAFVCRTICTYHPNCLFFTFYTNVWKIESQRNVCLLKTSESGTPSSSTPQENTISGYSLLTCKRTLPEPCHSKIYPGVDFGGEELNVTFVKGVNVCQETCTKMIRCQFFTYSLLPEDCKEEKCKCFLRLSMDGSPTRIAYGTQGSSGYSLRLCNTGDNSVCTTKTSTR
Assay: Inhibition of PKK in kaolin activated human PPP;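 also: readout is the rate of fluorogenic substrate cleavage in rfu per min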
Details: 25-750 μg/mL kaolin, global fit, text b200 calls the values IC90
Endpoint name: log10 IC50 (log10 of the value in nM)

1. Cn1cnc2c1CC[C@H]2NC(=O)c1cn(Cc2cnc(N3CC4CC4C3)cc2Cl)cn1 (stereo partly drawn) : 2.97
2. Cc1nc(N2CC3C(C2)C3(F)F)ccc1Cc1ncc(C(=O)N[C@@H]2CCc3c2ncn3C)o1 (stereo partly drawn) : 3.61
3. Cn1cnc2c1CC[C@H]2NC(=O)c1cnn(Cc2ccc(N3CC4CC4C3)nc2C(C)(C)C#N)c1 (stereo partly drawn) : 3.09
4. Cc1nc(N2CC3CC3C2)ccc1Cn1cc(C(=O)N[C@@H]2CCc3c2ncn3C)cn1 (stereo partly drawn) : 2.75
5. Cc1nc(N2CC3C(C2)C3(F)F)ccc1Cc1cc(C(=O)N[C@@H]2CCc3c2ncn3C)c[nH]1 (stereo partly drawn) : 2.86
6. C[C@@H](O)c1nc(N2CC3CC3C2)ccc1Cn1cc(C(=O)N[C@@H]2CCc3c2ncn3C)cn1 (stereo partly drawn) : 2.07
7. Cn1cnc2c1CC[C@H]2NC(=O)c1cnn(Cc2ncc(N3CC4CC4C3)nc2CO)c1 (stereo partly drawn) : 3.54
8. CC(O)c1nc(N2CC3C(C2)C3(F)F)ccc1Cn1cc(C(=O)N[C@@H]2CCc3c2ncn3C)nn1 (stereo partly drawn) : 2.29
9. Cn1cnc2c1CC[C@H]2NC(=O)c1cn(Cc2ccc(N3CC4CC4C3)nc2)cn1 (stereo partly drawn) : 2.92
10. Cc1c(Cn2cnc(C(=O)N[C@@H]3CCc4c3ncn4C)c2)cnc(N2CC3C(C2)C3(F)F)c1C#N (stereo partly drawn) : 2.07
11. Cn1cnc2c1CC[C@H]2NC(=O)c1cn(Cc2ccc(N3CC4C(C3)C4(F)F)nc2)nn1 (stereo partly drawn) : 2.42
12. COCc1nc(N2CC3(CC3)C2)ccc1Cn1cnc(C(=O)N[C@@H]2CCc3c2ncn3C)c1 : 2.29
13. Cn1cnc2c1CC[C@H]2NC(=O)c1cn(Cc2ccc(N3CC4CC4C3)nc2F)nn1 (stereo partly drawn) : 2.91
14. Cc1cc(N2CC3C(C2)C3(F)F)nc(C)c1Cn1cc(C(=O)N[C@@H]2CCc3c2ncn3C)cn1 (stereo partly drawn) : 3.44
15. Cc1nc(N2CC3C(C2)C3(F)F)ncc1Cn1cc(C(=O)N[C@@H]2CCc3c2ncn3C)cn1 (stereo partly drawn) : 2.81
16. Cc1nc(N2CC3CC3C2)c(C#N)cc1Cn1cc(C(=O)N[C@@H]2CCc3c2ncn3C)cn1 (stereo partly drawn) : 3.14
17. Cc1nc(N2CC3C(C2)C3(F)F)ccc1Cn1ccc(C(=O)N[C@@H]2CCc3c2ncn3C)c1 (stereo partly drawn) : 2.79
18. CCc1nc(N2CC3CC3C2)ccc1Cn1cnc(C(=O)N[C@@H]2CCc3c2ncn3C)c1 (stereo partly drawn) : 2.28
19. Cn1cnc2c1CC[C@H]2NC(=O)c1cn(Cc2ccc(N3CC4CC4C3)nc2Cl)nn1 (stereo partly drawn) : 2.74
20. Cc1nc(N2CC3CC3C2)ccc1Cn1cc(C(=O)N[C@@H]2CCc3c2ncn3C)c(C(F)(F)F)n1 (stereo partly drawn) : 3.16
21. Cc1nc(N2CC3(CC3)C2)ccc1Cn1cc(C(=O)N[C@@H]2CCc3c2ncn3C)cn1 : 2.69
22. Cn1cnc2c1CC[C@H]2NC(=O)c1cnn(Cc2ccc(N3CC4CC4C3)nc2C(C)(C)O)c1 (stereo partly drawn) : 2.32
23. Cn1cnc2c1CC[C@H]2NC(=O)c1cn(Cc2ccc(N3CC4CC4C3)nc2CO)nn1 (stereo partly drawn) : 2.64
24. COCc1nc(N2CC3CC3C2)ccc1Cn1cnc(C(=O)N[C@@H]2CCc3c2ncn3C)c1 (stereo partly drawn) : 2.32
25. CCc1nc(N2CC3C(C2)C3(F)F)ccc1Cn1cc(C(=O)N[C@@H]2CCc3c2ncn3C)cn1 (stereo partly drawn) : 2.26
26. Cn1cnc2c1CC[C@H]2NC(=O)c1cnn(Cc2ccc(N3CC4CC4C3)c(C#N)c2F)c1 (stereo partly drawn) : 2.60
27. COCc1nc(N2CC3C(C2)C3(F)F)ccc1Cn1cc(C(=O)N[C@@H]2CCc3c2ncn3C)cn1 (stereo partly drawn) : 2.40
